# System: L-428
# Assay: cells
# Type: functional, cell-based
# Stated Conditions: Homo sapiens
# Description: SANGER: Inhibition of human L-428 cell growth in a cell viability assay.
Quantity Measured: IC50

1) CO[C@H]1C[C@@H]2CC[C@@H](C)[C@@](O)(O2)C(=O)C(=O)N2CCCC[C@H]2C(=O)O[C@H]([C@H](C)C[C@@H]2CC[C@@H](O)[C@H](OC)C2)CC(=O)[C@H](C)/C=C(\C)[C@@H](O)[C@@H](OC)C(=O)[C@H](C)C[C@H](C)/C=C/C=C/C=C/1C [SIROLIMUS] :: > 0.1 µM
2) O=C(NOCC1CC1)c1ccc(F)c(F)c1Nc1ccc(I)cc1Cl [CI-1040] :: > 10 µM
3) CNC(=O)c1cc(Oc2ccc(NC(=O)Nc3ccc(Cl)c(C(F)(F)F)c3)cc2)ccn1 [SORAFENIB] :: > 4 µM
4) CN(C)C/C=C/C(=O)Nc1cc2c(Nc3ccc(F)c(Cl)c3)ncnc2cc1O[C@H]1CCOC1 [AFATINIB] :: > 0.5 µM
5) COc1cc(F)c(F)c(Nc2ccc(I)cc2F)c1NS(=O)(=O)C1(CC(O)CO)CC1 (configuration not stated) :: > 5 µM
6) CN1CCN(CCOc2cc(OC3CCOCC3)c3c(Nc4c(Cl)ccc5c4OCO5)ncnc3c2)CC1 [SARACATINIB] :: > 2 µM
7) CC(=O)O[C@@]12CO[C@@H]1C[C@H](O)[C@@]1(C)C(=O)[C@H](O)C3=C(C)[C@@H](OC(=O)[C@H](O)[C@@H](NC(=O)OC(C)(C)C)c4ccccc4)C[C@@](O)([C@@H](OC(=O)c4ccccc4)[C@H]21)C3(C)C [DOCETAXEL] :: > 0.01 µM
8) CCOc1nc(NC(=O)Cc2cc(OC)ccc2OC)cc(N)c1C#N :: > 10 µM
9) O=C(/C=C/c1ccccc1)NC(NC(=S)Nc1cccc2cccnc12)C(Cl)(Cl)Cl (configuration not stated) [SALUBRINAL] :: > 16 µM
10) CCc1nc(N)nc(N)c1-c1ccc(Cl)cc1 [PYRIMETHAMINE] :: > 20 µM
11) C=CCc1cccc(/C=N/NC(=O)CN2CCN(Cc3ccccc3)CC2)c1O [PAC-1] :: 1.33 µM
12) CC(=O)O[C@@H]1[C@@H](OC(C)=O)[C@@H](O)[C@H](Oc2c(-c3ccc(O)cc3)oc3cc(O)cc(O)c3c2=O)O[C@H]1C :: > 10 µM
